assay: PZQ-ketoconazole DDI pharmacokinetic study in healthy volunteers; type: in vivo, human; details: male, human, plasma, po, 20 mg/kg, single oral 20 mg/kg PZQ alone, n = 9; read-out: AUCt0‐tlast, reference mean (SD)
READOUT TYPE: AUC
Note: state the figure and append the unit.

compound="O=C(C1CCCCC1)N1CC(=O)N2CCc3ccccc3[C@H]2C1 [S‐PZQ, S‐Praziquantel]" readout_type=AUC reported_value="3150 ng·h/mL"

Please find the next compound below.
The measured AUC associated with O=C(C1CCCCC1)N1CC(=O)N2CCc3ccccc3[C@@H]2C1 [R‐PZQ, R‐Praziquantel] reads 1240 ng·h/mL
